- Tested on: Trypanosoma brucei
- ASSAY DETAILS: Trypanosoma brucei 72 hour study
- Format: functional, organism-based
- Set-up: scale not given: in the data most compounds retested in dose-response had high values
- PROTOCOL CONDITIONS: 30.3 µM; […]
Screen size: about 66,000 compounds; about 960 (1.5%) showed an effect of 50% or more. Shown is part of a subset that was picked to be rich in strong results.
// values below are reported Percent Effect
// return numeric value only (unit: %, not printed)

// worked examples, Percent Effect included
{"COMPOUND": "CNc1ncc2c(n1)CN(c1cccc(OC)c1)C2=O", "TARGET OF ASSAY": "Trypanosoma brucei", "QUANTITY": "Percent Effect", "UNIT SYMBOL": "%", "REPORTED VALUE": 5.042}
{"COMPOUND": "Cc1ccc(C(=O)N2CCCCC2CNC(N)=O)cc1F (stereo not drawn)", "TARGET OF ASSAY": "Trypanosoma brucei", "QUANTITY": "Percent Effect", "UNIT SYMBOL": "%", "REPORTED VALUE": 53.34}
{"COMPOUND": "C[C@@H](CO)Nc1nccc(-c2cnc3sc(Cl)cn3c2=O)n1", "TARGET OF ASSAY": "Trypanosoma brucei", "QUANTITY": "Percent Effect", "UNIT SYMBOL": "%", "REPORTED VALUE": 8.201}
{"COMPOUND": "CCCSc1ncc(CN(C)CCN2CCCCC2)cn1.O=C(O)CC(O)(CC(=O)O)C(=O)O", "TARGET OF ASSAY": "Trypanosoma brucei", "QUANTITY": "Percent Effect", "UNIT SYMBOL": "%", "REPORTED VALUE": 2.471}

Query string: Requested read-out: Percent Effect. Entry: CC(=O)Nc1ccc(CN2CCCC(c3cc4ncccc4[nH]3)C2)cc1 (stereo not drawn)
Result string: 8.67

Query string: // Percent Effect lookup, key: CC(C)CC(=O)N1C[C@@H]2CCN(c3ncccn3)C[C@@H]2C1.O=C(O)C(F)(F)F
Result string: -27.97

Query string: If you can, please state the reported Percent Effect value of N#Cc1cccnc1N1CCC(C2CCCCCN2C(=O)C2CC2)CC1 (stereo not drawn) .
Result string: 53.48

Query string: Data request, read-out Percent Effect, for Fc1ccc(CN2CCCC(c3cc4ncccc4[nH]3)C2)cc1 (stereo not drawn)
Result string: 55.67

Query string: State the recorded Percent Effect for this entry: CN(c1ncnc2ccccc12)C1CCCN(c2cccnn2)C1 (stereo not drawn)
Result string: -20.2

Query string: Fill in: Percent Effect of CCOc1ccc(CN2CCN(C(=O)c3cc(C4CC4)[nH]n3)CC2)cc1 is ___
Result string: -13.15

Query string: Would you mind telling me what Percent Effect value was observed for Cc1[nH]c2ccccc2c1-c1ccnc(N[C@@H](C)CO)n1 ?
Result string: 24.23

Query string: Record request: Percent Effect value, item CS(=O)(=O)N1Cc2ccccc2C2(CCN(C(=O)c3ccno3)CC2)C1
Result string: -25.32

Query string: # lookup: Percent Effect of Cn1cc(N2Cc3nc(N4CCOCC4)ncc3C2=O)cn1
Result string: -24.66

Query string: Fill in the blank: the reported Percent Effect of Cc1ccc(CN(CCCn2ccnc2)Cc2cnn(C)c2)s1.O=C(O)CC(O)(CC(=O)O)C(=O)O is ____.
Result string: -61.1
